From: patent US20230235048A1

Biological target: T1, extracellular domain (ECD) of recombinant human Sortilin with a C-terminal HIS tag (ECD-huSortilin-HIS) (human, UniProt Q99523 78-755)
T1 construct: Bought (R&D Systems); also called human sortilin-ECD; not shown: C-terminal HIS tag
T1 sequence: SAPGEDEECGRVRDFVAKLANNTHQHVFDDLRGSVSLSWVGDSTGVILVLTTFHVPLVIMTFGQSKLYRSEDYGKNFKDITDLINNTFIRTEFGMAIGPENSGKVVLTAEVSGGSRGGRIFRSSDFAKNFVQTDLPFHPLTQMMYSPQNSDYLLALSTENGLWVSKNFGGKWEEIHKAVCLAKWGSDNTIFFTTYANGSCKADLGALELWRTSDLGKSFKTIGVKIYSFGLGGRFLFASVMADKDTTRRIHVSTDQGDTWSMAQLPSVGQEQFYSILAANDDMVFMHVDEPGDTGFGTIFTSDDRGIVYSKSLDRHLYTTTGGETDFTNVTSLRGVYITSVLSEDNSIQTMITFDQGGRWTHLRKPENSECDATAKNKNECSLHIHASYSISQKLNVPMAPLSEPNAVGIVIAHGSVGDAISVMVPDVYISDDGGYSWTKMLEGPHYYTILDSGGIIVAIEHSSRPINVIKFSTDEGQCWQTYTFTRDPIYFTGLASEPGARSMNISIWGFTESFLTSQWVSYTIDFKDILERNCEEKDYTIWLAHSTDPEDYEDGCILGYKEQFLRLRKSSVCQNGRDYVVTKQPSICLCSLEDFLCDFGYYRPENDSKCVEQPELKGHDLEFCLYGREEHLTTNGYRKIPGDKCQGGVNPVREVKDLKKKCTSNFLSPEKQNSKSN
Experiment: ELISA, ECD-huSortilin-HIS coated at 1 ug/mL, goat anti-human IgG-HRP, chemiluminescence

BINDER	EC50 (µg/mL)
chimeric 5E20 (antibody, human IgG1, kappa, L234A L235A, V domains shown, The entries are described as 'a chimeric 5E20 heavy chain' and 'light chain') VH: EVQLVESGGDLVKPGGSLKLSCAAPGFTFSTYGMSWVRQTPDKRLEWVAIISSGGSYTYYSDTVKGRFTISRDNAKNTLYLQMSSLKSEDTAMYYCSRSSSHWYFDVWGTGTTVTVSS VL: DILMTQSPSSMSVSLGDTVSITCHASQGISSNIGWLQQKPGKSFKGLIYHGTNLKDGVPSRFSGSGSGADFSLTISSLESEDFADYFCVQYAQFPYTFGGGTKLEIKR	0.07
humanized 11M14 hu11M14VHv2b/hu11M14VLv4b (antibody, V domains shown, Human IgG; also called 11M14H2bL4b) VH: EVQLVESGGGLVQPGGSLRLSCAASGFTFNIYGMSWVRQAPGKGLEWVATISSGGIYTYYPDILKGRFTISRDNAKNSLYLQMNSGRAEDTAVYYCARHPGGAMDYWGQGTLVTVSS VL: DIQMTQSPSSLSASVGDRVTITCRVSENIYSNLAWYQQKPGKSPKLLVYAATNIADGVPSRFSGSGSGTDYTLTISSLQPEDFATYYCQHFWGTPPWTFGQGTKLEIK	0.1
